Biological target: T1, hFc · flag · hPSMA (human, UniProt Q04609 44-750)
T1 construct: The order of the parts follows the printed label; also called human PSMA; h PSMA-Fc; not shown: human Fc (hFc); flag tag
T1 sequence (Q04609 44-750 limits assumed): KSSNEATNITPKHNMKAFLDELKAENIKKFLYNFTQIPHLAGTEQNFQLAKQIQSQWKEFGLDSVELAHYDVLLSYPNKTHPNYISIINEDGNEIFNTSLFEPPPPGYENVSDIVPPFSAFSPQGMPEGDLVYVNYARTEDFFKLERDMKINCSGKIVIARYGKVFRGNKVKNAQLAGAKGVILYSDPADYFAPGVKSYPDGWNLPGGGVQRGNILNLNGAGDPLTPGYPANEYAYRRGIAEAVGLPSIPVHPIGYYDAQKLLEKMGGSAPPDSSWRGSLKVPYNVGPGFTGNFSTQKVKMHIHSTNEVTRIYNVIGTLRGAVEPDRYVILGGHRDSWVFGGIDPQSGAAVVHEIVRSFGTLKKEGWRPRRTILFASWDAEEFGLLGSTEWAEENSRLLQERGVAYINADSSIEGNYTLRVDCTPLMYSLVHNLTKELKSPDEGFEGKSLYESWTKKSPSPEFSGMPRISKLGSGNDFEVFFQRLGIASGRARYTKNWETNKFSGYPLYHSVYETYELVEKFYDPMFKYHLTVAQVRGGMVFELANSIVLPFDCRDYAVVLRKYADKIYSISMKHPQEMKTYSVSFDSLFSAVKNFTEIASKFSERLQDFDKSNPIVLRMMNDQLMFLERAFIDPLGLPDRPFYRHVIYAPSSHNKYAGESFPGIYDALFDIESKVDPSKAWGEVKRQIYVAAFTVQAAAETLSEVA
Assay: BLI (OCTET), expression supernatants, hFc.flag.hPSMA
measured-quantity: koff (s⁻¹)

anti-PSMA S33H T50D G97SsdAb.6his (VHH) VHH: EVQLVESGGGLVQPGGSLTLSCAASRFMISEYHMHWVRQAPGKGLEWVSDINPAGTTDYAESVKGRFTISRDNAKNTLYLQMNSLKPEDTAVYYCDSYGYRGQGTQVTVSS = 0.00538
anti-PSMA T56Q sdAb.6his (VHH) VHH: EVQLVESGGGLVQPGGSLTLSCAASRFMISEYSMHWVRQAPGKGLEWVSTINPAGQTDYAESVKGRFTISRDNAKNTLYLQMNSLKPEDTAVYYCDGYGYRGQGTQVTVSS = 0.00461
Anti-PSMA wt sdAb.6his (VHH, Tested as supernatant of Expi293 cells; also called parental sdAb; parental anti-PSMA single domain antibody) VHH: EVQLVESGGGLVQPGGSLTLSCAASRFMISEYSMHWVRQAPGKGLEWVSTINPAGTTDYAESVKGRFTISRDNAKNTLYLQMNSLKPEDTAVYYCDGYGYRGQGTQVTVSS = 0.0132

(1) anti-PSMA G55K sdAb.6his (VHH) VHH: EVQLVESGGGLVQPGGSLTLSCAASRFMISEYSMHWVRQAPGKGLEWVSTINPAKTTDYAESVKGRFTISRDNAKNTLYLQMNSLKPEDTAVYYCDGYGYRGQGTQVTVSS
(2) anti-PSMA E31P sdAb.6his (VHH) VHH: EVQLVESGGGLVQPGGSLTLSCAASRFMISPYSMHWVRQAPGKGLEWVSTINPAGTTDYAESVKGRFTISRDNAKNTLYLQMNSLKPEDTAVYYCDGYGYRGQGTQVTVSS
(3) anti-PSMA S33H G97SsdAb.6his (VHH) VHH: EVQLVESGGGLVQPGGSLTLSCAASRFMISEYHMHWVRQAPGKGLEWVSTINPAGTTDYAESVKGRFTISRDNAKNTLYLQMNSLKPEDTAVYYCDSYGYRGQGTQVTVSS
Query :: Sort (3 binders) by koff: min first. # respond with the labels, arranged in the requested order
Result :: 3, 1, 2
(3: 0.000197 s⁻¹, 1: 0.00248 s⁻¹, 2: 0.00366 s⁻¹)
